# test.system: T1, Rb^P R451S (human, UniProt P06400 380-788, R451S)
# T1 construct: also called variant 7
# T1 sequence (looked up): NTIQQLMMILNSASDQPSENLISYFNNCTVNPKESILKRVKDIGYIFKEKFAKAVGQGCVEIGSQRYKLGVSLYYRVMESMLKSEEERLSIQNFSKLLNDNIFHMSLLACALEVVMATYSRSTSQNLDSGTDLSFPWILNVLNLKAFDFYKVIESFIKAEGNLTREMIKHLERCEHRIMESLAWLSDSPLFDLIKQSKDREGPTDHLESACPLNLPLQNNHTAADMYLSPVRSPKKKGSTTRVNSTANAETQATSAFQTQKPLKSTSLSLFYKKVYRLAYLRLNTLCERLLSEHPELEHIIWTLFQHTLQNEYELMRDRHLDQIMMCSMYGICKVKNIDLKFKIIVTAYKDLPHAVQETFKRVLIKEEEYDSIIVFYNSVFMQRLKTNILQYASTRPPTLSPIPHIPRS
# protocol.description: fluorescence polarisation; 25 °C; unlabeled Rb^P titrated against 1.5 nM TMR-E2F1^TD or 7.5 nM TMR-E7^LxCxE; 25 mM Tris pH 8.0, 200 mM NaCl, 1 mM DTT, 0.1% Tween-20; 2 min incubation; quadratic fit; apparent Kd for the variants, Kd for WT
# condition.set: both partners purified
No end group written: not given here. TMR = tetramethyl rhodamine dye
reported.endpoint: pKd
Would you please state pKd, meaning minus log10 of the concentration in mol/L, as a bare number?

Sample {TMR}-GEGIRDLFDCDFGDLTPLD (also called E2F^TD; source: synthetic peptide, bought: GenScript) [TMR-E2F1^TD, peptide of the E2F1 transactivation domain] — what was its pKd?
7.59

Sample DLYCYEQLN (also: TMR label, position not given here, source: synthetic peptide, bought: GenScript) [TMR-E7^LxCxE, LxCxE peptide of the E7 oncoprotein from HPV] — what was its pKd?
8.05
